# Tested on: Serratia marcescens
# assay.details: MIC against Gram-negative bacteria: Serratia marcescens
# Assay type: cell-based
# particulars: 96-well plate, 5×10^5 CFU/mL, 37° C., 10 h
// values below are reported MIC against S. marcescens
Give a bare numeral; the unit µg/mL is implied.

For orientation, consider the following solved cases.
PRT547 (CQCHGHSDRCLPGSGVCVDCQHNTEGAHCERCQAGFVSSRDDPSAPCVS; listed as Homo sapiens) :: 25
PRT458 (ECSRLCRNGYCTPTGKCCCSPGWEGDFC; listed as Homo sapiens) :: 12.5
PRT521 (CNCNSFGSKSFDCEESGQCWCQPGVTGKKCDRCAHGYFNFQEGGCTA; listed as Homo sapiens) :: 12.5
PRT488 (DRCQLQTRCQNGGQWDGLKCQCPSTFYGSSCE; listed as Homo sapiens) :: 50
PRT478 (ATQYCSRAQCHGHGRCVRRNPSASTFLHLSTNSFRLVPGHAPGEPQLRPVGELSWADIDH; listed as Homo sapiens) :: 12.5
PRT447 (DVDECAQALHDRRPSQDCHNLSGSYQCTCPDGYRKIGPE; listed as Homo sapiens) :: 50
PRT486 (EANPCKFQACNEFSECLVNPWSGEAKCRCFPGYLSVEERPCQ; listed as Homo sapiens) :: 25
PRT463 (DVNECLQLPKACAYQCHNLQGSYRCLCPPGQTLLRDGKACT; listed as Homo sapiens) :: 50

Recorded MIC against S. marcescens (substance PRT558 (CTCDPRGALDQLCGAGGLCRCRPGYTGTACQECSPGFHGFPSCVP; listed as Homo sapiens) ): 12.5

====

# System: Pseudomonas aeruginosa
# assay.details: MIC against Gram-negative bacteria: Pseudomonas aeruginosa
# Assay type: cell-based
# particulars: P. aeruginosa; 10 h cultivation at 37° C.
Parameter MIC: see the listing below.
Supply the numeric figure in µg/mL, leaving out any unit text.

// known answers, use as guide
PRT904 (NTPDCTESSCFNGGTCVDGINSFTCLCPPGFTGSYCQ; listed as Homo sapiens) :: 25
PRT913 (VINGCKGKPCKNGGTCAVASNTARGFICKCPAGFEGATCE; listed as Homo sapiens) :: 50
PRT928 (NIDNCDPDPCHHGQCQDGIDSYTCICNPGYMGAICS; listed as Homo sapiens) :: 25

MIC measured on PRT988 (DVDECQLQPNACHNGGTCFNTLGGHSCVCVNGWTGESCS; listed as Homo sapiens) = 12.5

Reported MIC of PRT922 (LQCRDGYEPCVNEGMCVTYHNGTGYCKCPEGFLGEYCQ; listed as Homo sapiens) : 12.5

Sample PRT1013 (LEDPCPPSFCSKRGRCHIQASGRPQCSCMPGWTGEQCQ; listed as Homo sapiens) ; MIC observed: 12.5

Field MIC (entry PRT1001 (EMTACHSGPCLNGGSCNPSPGGYYCTCPPSHTGPQCQ; listed as Homo sapiens) ) reads 12.5

Summary for this substance, PRT961 (DVDECASTPCRNGAKCVDQPDGYECRCAEGFEGTLCD; listed as Homo sapiens) : MIC is 100

====

# System: Moraxella catarrhalis
# assay.details: MIC against Gram-negative bacteria: Moraxella catarrhalis
# Assay type: cell-based
# particulars: M. catarrhalis; 10 h cultivation at 37° C.; 5×10^5 CFU/mL
measurement.kind: MIC (μg/mL) M. catarrhalis (µg/mL)
Return type: number; implicit unit µg/mL.

Consider the reported MIC (μg/mL) M. catarrhalis for these substances:
PRT865 (CSCHPVGSAVLPANSVTFCDPSNGDCPCKPGVAGRRCDRCMVGYWGFGDYGCRP; listed as Homo sapiens) :: 50
PRT146 (DRDECSFQPGPCSTLVQCFNTQGSFYCGACPTGWQGNGYICE; listed as Homo sapiens) :: 12.5
PRT769 (CNGVDHGCEFQCVSEGLSYRCLCPEGRQLQADGKSC; listed as Homo sapiens) :: 12.5
PRT875 (GGSPCEAGEEGEGGVCLNGGVCSVVDDQAVCDCSRTGFRGKDCS; listed as Homo sapiens) :: 25

Recorded MIC (μg/mL) M. catarrhalis (substance PRT240 (NINECEVEPCKNGGICTDLVANYSCECPGEFMGRNCQ; listed as Homo sapiens) ): 12.5

Looking up PRT770 (FRDPCDPNPCQNDGICVNVKGMASCRCISGHAFFYTGERCQ; listed as Homo sapiens) , I see its MIC (μg/mL) M. catarrhalis listed as 25

// MIC (μg/mL) M. catarrhalis lookup, substance = PRT755 (AVDYCASENHGCEHECVNADGSYLCQCHEGFALNPDKKTCT; listed as Homo sapiens) , result: 50

MIC (μg/mL) M. catarrhalis recorded for this substance, PRT771 (VQDLCSKTTCKNDGVCTVRDGKAECRCQSGEDWWYMGERCE; listed as Homo sapiens) , is 12.5

What the record says about PRT757 (RINYCALNKPGCEHECVNMEESYYCRCHRGYTLDPNGKTCS; listed as Homo sapiens) : MIC (μg/mL) M. catarrhalis is 50

====

Parameter MIC against P. aeruginosa: see the listing below.
# System: Pseudomonas aeruginosa
# assay.details: MIC against Gram-negative bacteria: Pseudomonas aeruginosa
# Type: cell-based
# particulars: Pseudomonas aeruginosa; 96-well plate, 5×10^5 CFU/mL, 37° C., 10 h
State the value, then name its unit.

PRT1289 (LAEPCRGLQCLHGHCQASGTKGAHCVCDPGFSGELCE; listed as Homo sapiens) :: 12.5 µg/mL
PRT1267 (CNHGNGGCQHSCDDTADGPECSCHPQYKMHTDGRSC; listed as Homo sapiens) :: 50 µg/mL

# PRT1263 (DVDECAQGLDDCHADALCQNTPTSYKCSCKPGYQGEGRQCE; listed as Homo sapiens) with Pseudomonas aeruginosa: MIC against P. aeruginosa is 12.5 µg/mL

The substance PRT1316 (ELPVCQELRCPQNTQCSAEAPSCRCLPGYTQQGSE; listed as Homo sapiens) on Pseudomonas aeruginosa: MIC against P. aeruginosa was 50 µg/mL

====

# System: Citrobacter diversus
# assay.details: MIC against Gram-negative bacteria: Citrobacter diversus
# Type: cell-based
# particulars: 96-well plate, 5×10^5 CFU/mL, 37° C., 10 h
# MIC against C. diversus per record follows
Response body: numeric value in µg/mL, unit text excluded.

PRT489 (CDNGGTWEQGQCACLPGFSGDRCQLQTRCQNG; listed as Homo sapiens) :: 12.5
PRT539 (CDCSGNSDPNLIFEDCDEVTGQCRNCLRNTTGFKCERCAPGYYGDARIAKNCAV; listed as Homo sapiens) :: 12.5
PRT494 (CNCSLVGSTHHRCDVVTGHCQCKSKFGGRACDQCSLGYRDFPDCVP; listed as Homo sapiens) :: 12.5
PRT545 (CNCSGPGIQELTDPTCDTDSGQCKCRPNVTGRRCDTCSPGFHGYPRCRP; listed as Homo sapiens) :: 12.5
PRT523 (CSCGRRLCEEMTGQCRCPPRTVRPQCEVCETHSFSFHPMAGCEG; listed as Homo sapiens) :: 50

Noted for PRT562 (CQCHNNIDTTDPEACDKETGRCLKCLYHTEGEHCQFCRFGYYGDALQQDCRK; listed as Homo sapiens) : its MIC against C. diversus reads 50

According to the records, this substance PRT486 (EANPCKFQACNEFSECLVNPWSGEAKCRCFPGYLSVEERPCQ; listed as Homo sapiens) displays MIC against C. diversus of 12.5

====

In this section we review reported MIC against E. coli BL21 values for a set of substances.
# System: E. coli BL21
# assay.details: MIC against Gram-negative bacteria: E. coli BL21
# Format: cell-based
# particulars: E. coli BL21; 5×10^5 CFU/mL; 10 h cultivation at 37° C.

Study these solved cases before continuing.
PRT1406 (EADCIDPGCSNHGVCIHGECHCSPGWGGSNCE; listed as Homo sapiens) :: 50 µg/mL
PRT1474 (IPDQCSPLPCNEDGYMSCKDGKASFTCTCKPGWQGEKCE; listed as Homo sapiens) :: 12.5 µg/mL

MIC against E. coli BL21 reading for PRT1399 (ARVQCPDQCSGHGTYLPDTGLCSCDPNWMGPDCS; listed as Homo sapiens) : 12.5 µg/mL

The reported MIC against E. coli BL21 of the substance PRT1458 (CNCHLSGALNETCHLVTGQCFCKQFVTGSKCDACVPSASHLDVNNLLGCSK; listed as Homo sapiens) was 12.5 µg/mL

Record summary for PRT1462 (CQCNLHGSVNKFCNPHSGQCECKKEAKGLQCDTCRENFYGLDVTNCKA; listed as Homo sapiens) : reported MIC against E. coli BL21 = 25 µg/mL

For PRT1432 (PARTCHSPAHSPCHIHAHCLFERNGAVSCQCNVGWAGNGNVCG; listed as Homo sapiens) the substance record lists MIC against E. coli BL21 as 12.5 µg/mL
